Test system: HCV replication
Assay: HCV replicon assay (luciferase), ET (Huh-lucubineo-ET) cell line
Type: cell-based
Settings: Hepatitis C virus; tested at 10 μM; ET (Huh-lucubineo-ET) replicon cells; luciferase activity 48-72 hours; relative to no compound control
The label depends only on inhibition at 10 µM: y if it is at least 20%, n if it is smaller.

O=C(NC1CC1)c1ccc(-c2ccc3nc([C@@H]4CCCN4C(=O)OCc4ccccc4)sc3c2)cc1 [Compound 4022] :: n
O=C(NCc1ccc(-c2cccc(C#C[C@@H]3CCCN3C(=O)OCc3ccccc3)c2)cc1)C1CC1 [Compound 4041] :: y
O=C(OCc1ccccc1)N1CCC[C@H]1c1nc2ccc(-c3cccc(O)c3)cc2[nH]1 [Compound 4054] :: y

Q. Can Cc1nc2cc(-c3ccc4nc([C@@H]5CCCN5C(=O)OCc5ccccc5)[nH]c4c3)ccc2s1 [Compound 4051] be said to have inhibition at 10 µM at or above 20%?
A. y

Q. Assess whether reported inhibition at 10 µM for O=C(OCc1ccccc1)N1CCC[C@H]1c1nc2ccc(-c3ccc4[nH]ccc4c3)cc2s1 [Compound 4005] sits at 20% or higher.
A. n

Q. Is inhibition at 10 µM for O=C(OCc1ccccc1)N1CCC[C@H]1c1nc2ccc(-c3ccccc3)cc2[nH]1 [Compound 4007] at or above 20%?
A. n

Q. inhibition at 10 µM >= 20% for NC(=O)Nc1ccc(-c2ccc3nc([C@@H]4CCCN4C(=O)OCc4ccccc4)[nH]c3c2)cc1 [Compound 4034] ?
A. y
